Parameter EC50: see the listing below.
test system: human M2 receptor (Homo sapiens, UniProt P08172)
Sequence (P08172 whole entry): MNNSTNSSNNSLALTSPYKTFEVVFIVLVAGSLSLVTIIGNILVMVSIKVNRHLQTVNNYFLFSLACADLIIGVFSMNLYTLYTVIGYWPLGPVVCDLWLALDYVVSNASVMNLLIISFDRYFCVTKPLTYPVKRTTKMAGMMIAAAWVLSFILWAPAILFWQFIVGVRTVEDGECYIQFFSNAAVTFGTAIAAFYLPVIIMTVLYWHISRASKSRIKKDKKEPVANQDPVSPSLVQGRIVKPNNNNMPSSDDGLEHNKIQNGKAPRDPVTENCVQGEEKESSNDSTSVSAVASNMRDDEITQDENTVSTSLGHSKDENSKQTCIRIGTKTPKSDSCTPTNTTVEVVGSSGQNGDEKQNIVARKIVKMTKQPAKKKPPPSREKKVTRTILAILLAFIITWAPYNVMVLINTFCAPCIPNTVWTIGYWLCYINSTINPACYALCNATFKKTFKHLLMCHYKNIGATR
assay details: Functional M2-GIRK1/4 activation test: allosteric potency (EC50) and efficiency at EC20 acetylcholine
condition info: CHO-DUKX-M2-GIRK cells; voltage-sensitive dye; acetylcholine at EC20; in some cases mean of two or more determinations
Provide the reading as a plain figure in nM.

Look over these answered cases.
compound: CC(NC(=O)c1cn(-c2c(F)cc(F)cc2F)c2nc(N3CC(CO)(CO)C3)c(F)cc2c1=O)C(F)(F)C(F)(F)F (racemic) [Example 169]
test system: human M2 receptor (Homo sapiens, UniProt P08172)
EC50, nM: 3.8
//
compound: CC[C@H](NC(=O)c1cn(-c2c(F)cc(F)cc2Cl)c2nc(N3C[C@@H](O)[C@H](O)C3)c(F)cc2c1=O)C(F)(F)F (single isomer, unassigned) [Example 47]
test system: human M2 receptor (Homo sapiens, UniProt P08172)
EC50, nM: 48

The recorded EC50 for CC(C)(NC(=O)c1cn(-c2c(F)cc(F)cc2Cl)c2nc(N3C[C@@H](O)[C@H](O)C3)c(F)cc2c1=O)C(F)F (single isomer, unassigned) [Example 143] is 1.5

The recorded EC50 for CC(C)(NC(=O)c1cn(-c2c(F)cc(F)cc2Cl)c2nc(N3C[C@@H](O)[C@H](O)C3)c(F)cc2c1=O)C(F)F [Example 141] is 3.4

The recorded EC50 for O=C(NC(C1CC1)(C1CC1)C(F)(F)C(F)(F)F)c1cn(-c2c(F)cc(F)cc2F)c2nc(N3C[C@@H](O)[C@H](O)C3)c(F)cc2c1=O is 1.8

The recorded EC50 for O=C(N[C@@H](C1CC1)C(F)(F)F)c1cn(-c2c(F)cc(F)cc2F)c2nc(N3CC(CO)(CO)C3)c(F)cc2c1=O is 8.35

###

test system: human M2 receptor (Homo sapiens, UniProt P08172)
Construct: expressed in transfected cells; host or cells: CHO-DUKX (CHO-DUKX-M2-GIRK)
assay details: Functional M2-GIRK1/4 activation test: allosteric potency (EC50) and efficiency at EC20 acetylcholine
Assay type: cell-based
condition info: CHO-DUKX-M2-GIRK cells; voltage-sensitive dye; acetylcholine at EC20; in some cases mean of two or more determinations
assay readout: EC50 (nM)
Provide the reading as a plain figure in nM.

Look over these answered cases.
molecule: CC(NC(=O)c1cn(-c2c(F)cc(F)cc2F)c2nc(N3CC[C@H](O)C3)c(F)cc2c1=O)C(F)(F)C(F)(F)F (single isomer, unassigned) [Example 114]
assay readout: EC50
unit annotation: nM
readout number: 7

molecule: O=C(NC(C1CC1)(C1CC1)C(F)(F)F)c1cn(-c2c(F)cc(F)cc2F)c2nc(N3CC(CO)(CO)C3)c(F)cc2c1=O [Example 210]
assay readout: EC50
unit annotation: nM
readout number: 2.1

In the following, a different molecule is considered.
The recorded EC50 for CCC(COC(F)(F)F)NC(=O)c1cn(-c2c(F)cc(F)cc2F)c2nc(N3C[C@@H](O)[C@H](O)C3)c(F)cc2c1=O (single isomer, unassigned) [Example 31] is 4.15

###

test system: human M2 receptor (Homo sapiens, UniProt P08172)
Construct: expressed in transfected cells; host or cells: CHO-DUKX (CHO-DUKX-M2-GIRK)
assay details: Functional M2-GIRK1/4 activation test: positive cooperativity (α factor), shift of acetylcholine dose-response curve
Assay type: cell-based
condition info: Allosteric EC50 shift of acetylcholine 8-point dose-response curve; CHO-DUKX-M2-GIRK cells; α>1 = positive cooperativity
Each entry gets not fulfilled if its Cooperativity (alpha factor) stays under 40, and fulfilled if its Cooperativity (alpha factor) is 40 or above.

Would you please look over these solved cases?
compound: CC(NC(=O)c1cn(-c2c(F)cc(F)cc2F)c2nc(N3CCC(O)(CO)CC3)c(F)cc2c1=O)C(F)(F)C(F)(F)F (single isomer, unassigned)
group label: not fulfilled
--
compound: O=C(NC(C1CC1)(C1CC1)C(F)(F)C(F)(F)F)c1cn(-c2c(F)cc(F)cc2F)c2nc(N3CC(CO)(CO)C3)c(F)cc2c1=O
group label: not fulfilled
--
compound: CC(C)[C@H](C)NC(=O)c1cn(-c2c(F)cc(F)cc2F)c2nc(N3C[C@@H](O)[C@H](O)C3)c(F)cc2c1=O
group label: fulfilled

Now, please, on to the next compound.
Decide: Cooperativity (alpha factor) of CC(C)C[C@H](NC(=O)c1cn(-c2c(F)cc(F)cc2F)c2nc(N3CC(O)[C@H](O)C3)c(F)cc2c1=O)C(F)(F)F (stereo in doubt) >= 40?
fulfilled
